Ref: patent US5869658A

Experiment: Photochromic response of test squares on an optical bench (ΔOD/Min, ΔOD at saturation, bleach rate)
Assay type: physicochemical
Conditions: UV exposure continued for 20 minutes; 75° F.; 1.5×10^-3 molal in polymer
quantity.measured: ΔOD @ saturation

[
  {
    "compound": "COc1cc2c3c(c4c(c2cc1OC)-c1ccccc1C4C)OC(c1ccccc1)(c1ccccc1)C=C3 (centres unmarked)",
    "quantity.measured": "ΔOD @ saturation",
    "recorded.result": 0.38
  },
  {
    "compound": "COc1cc2c3c(c4c(c2cc1OC)-c1ccccc1C4O)OC(c1ccccc1)(c1ccccc1)C=C3 (centres unmarked)",
    "quantity.measured": "ΔOD @ saturation",
    "recorded.result": 0.17
  },
  {
    "compound": "COc1cc2c3c(c4c(c2cc1OC)-c1ccccc1C4(C)C)OC(c1ccccc1)(c1ccccc1)C=C3",
    "quantity.measured": "ΔOD @ saturation",
    "recorded.result": 0.37
  },
  {
    "compound": "COc1cc2c3c(c4c(c2cc1OC)-c1ccccc1C4(C)O)OC(c1ccccc1)(c1ccccc1)C=C3 (centres unmarked)",
    "quantity.measured": "ΔOD @ saturation",
    "recorded.result": 0.25
  },
  {
    "compound": "COc1ccc2c3c(c4c(c2c1)C=CC(c1ccccc1)(c1ccccc1)O4)Cc1ccccc1-3",
    "quantity.measured": "ΔOD @ saturation",
    "recorded.result": 0.38
  }
]

1 = COc1cc2c3c(c4c(c2cc1OC)-c1ccccc1C4)OC(c1ccccc1)(c1ccccc1)C=C3
2 = CCCCC1(O)c2ccccc2-c2c1c1c(c3cc(OC)c(OC)cc23)C=CC(c2ccccc2)(c2ccccc2)O1 (centres unmarked)
3 = COc1ccc(C2(c3ccccc3F)C=Cc3c(c4c(c5cc(OC)c(OC)cc35)-c3ccccc3C4)O2)cc1 (centres unmarked)
Prompt line: Sort ascending by ΔOD @ saturation. Rank the items, then write their labels in that order.
Response line: 2, 1, 3

====

Assay: Photochromic response of test squares on an optical bench (ΔOD/Min, ΔOD at saturation, bleach rate)
Assay type: physicochemical
Conditions: time to one half the highest absorbance at room temperature (75° F.) after removal of activating light
quantity.measured: Bleach T 1/2 (s)

[
  {
    "molecule": "CCCCC1(O)c2ccccc2-c2c1c1c(c3cc(OC)c(OC)cc23)C=CC(c2ccccc2)(c2ccccc2)O1 (centres unmarked) [Example 7]",
    "recorded.result": 38
  },
  {
    "molecule": "COc1cc2c3c(c4c(c2cc1OC)-c1ccccc1C4)OC(c1ccccc1)(c1ccccc1)C=C3 [Example 2]",
    "recorded.result": 51
  },
  {
    "molecule": "COc1cc2c3c(c4c(c2cc1OC)-c1ccccc1C4(C)C)OC(c1ccccc1)(c1ccccc1)C=C3 [Example 5]",
    "recorded.result": 58
  }
]

1 = COc1ccc2c3c(c4c(c2c1)C=CC(c1ccccc1)(c1ccccc1)O4)Cc1ccccc1-3 [Example 1]
2 = COc1ccc(C2(c3ccccc3F)C=Cc3c(c4c(c5cc(OC)c(OC)cc35)-c3ccccc3C4)O2)cc1 (centres unmarked) [Example 3]
3 = COc1cc2c3c(c4c(c2cc1OC)-c1ccccc1C4C)OC(c1ccccc1)(c1ccccc1)C=C3 (centres unmarked) [Example 4]
Prompt line: Sort ascending by Bleach T 1/2. Rank the items, then write their labels in that order.
Response line: 1, 3, 2
(1: 42 s, 3: 62 s, 2: 227 s)
